Data credit: patent US5854204A

Entries and their inhibition at 100 %
TESTED_ON: Aβ1-40 (Homo sapiens, UniProt P05067)
Sequence (P05067 672-711): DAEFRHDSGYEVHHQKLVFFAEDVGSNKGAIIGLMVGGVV
ASSAY: biochemical;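 also: Aβ nucleation assay tracking fiber polymerization from monomer by turbidity (light scattering), shaken continuously in 96-well plates, read every 15 min over 5 h, compared with compound-free control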
RECORDED_CONDITIONS: read-out: % Inucl'n (percent reduction in maximum turbidity)
Peptide text beside a SMILES is read from it. * marks the point of attachment. Cholyl = C[C@H](CCC(=O)*)[C@H]1CC[C@H]2[C@@H]3[C@H](O)C[C@@H]4C[C@H](O)CC[C@]4(C)[C@H]3C[C@H](O)[C@]12C
OBSERVED_PROPERTY: inhibition at 100 % (%)

INSERT INTO results (molecule, tested_on, experimental_value) VALUES
  ('CC(C)C[C@H](NC(=O)CC[C@@H](C)[C@H]1CC[C@H]2[C@@H]3[C@H](O)C[C@@H]4C[C@H](O)CC[C@]4(C)[C@H]3C[C@H](O)[C@]12C)C(=O)N[C@H](C(=O)N[C@@H](Cc1ccccc1)C(=O)N[C@@H](Cc1ccccc1)C(=O)N[C@@H](C)C(N)=O)C(C)C', 'Aβ1-40 (Homo sapiens, UniProt P05067)', -200),
  ('C[C@H](NC(=O)[C@H](C)NC(=O)[C@H](C)NC(=O)[C@H](C)NC(=O)[C@H](C)NC(=O)CC[C@@H](C)[C@H]1CC[C@H]2[C@@H]3[C@H](O)C[C@@H]4C[C@H](O)CC[C@]4(C)[C@H]3C[C@H](O)[C@]12C)C(=O)O [PPI-365, Cholyl-penta-alanine, reference compound]', 'Aβ1-40 (Homo sapiens, UniProt P05067)', -7),
  ('CC(C)C[C@H](NC(=O)CC[C@@H](C)[C@H]1CC[C@H]2[C@@H]3[C@H](O)C[C@@H]4C[C@H](O)CC[C@]4(C)[C@H]3C[C@H](O)[C@]12C)C(=O)N[C@H](C(=O)N[C@@H](Cc1ccccc1)C(=O)N[C@@H](Cc1ccccc1)C(=O)N[C@@H](C)C(=O)O)C(C)C', 'Aβ1-40 (Homo sapiens, UniProt P05067)', 100),
  ('CC(C)C[C@H](NC(=O)CC[C@@H](C)[C@H]1CC[C@H]2[C@@H]3[C@H](O)C[C@@H]4C[C@H](O)CC[C@]4(C)[C@H]3C[C@H](O)[C@]12C)C(=O)N[C@@H](C)C(=O)N[C@@H](Cc1ccccc1)C(=O)N[C@@H](Cc1ccccc1)C(=O)N[C@@H](C)C(=O)O [PPI-389] (Cholyl-LAFFA-OH)', 'Aβ1-40 (Homo sapiens, UniProt P05067)', 47),
  ('C[C@H](NC(=O)[C@H](Cc1ccccc1)NC(=O)[C@H](Cc1ccccc1)NC(=O)CC[C@@H](C)[C@H]1CC[C@H]2[C@@H]3[C@H](O)C[C@@H]4C[C@H](O)CC[C@]4(C)[C@H]3C[C@H](O)[C@]12C)C(=O)O', 'Aβ1-40 (Homo sapiens, UniProt P05067)', 51),
  ('CC(C)C[C@@H](NC(=O)CC[C@@H](C)[C@H]1CC[C@H]2[C@@H]3[C@H](O)C[C@@H]4C[C@H](O)CC[C@]4(C)[C@H]3C[C@H](O)[C@]12C)C(=O)N[C@@H](C(=O)N[C@H](Cc1ccccc1)C(=O)N[C@H](Cc1ccccc1)C(=O)N[C@H](C)C(=O)O)C(C)C', 'Aβ1-40 (Homo sapiens, UniProt P05067)', 27),
  ('CC(C)[C@H](NC(=O)[C@H](Cc1ccccc1)NC(=O)[C@H](Cc1ccccc1)NC(=O)CC[C@@H](C)[C@H]1CC[C@H]2[C@@H]3[C@H](O)C[C@@H]4C[C@H](O)CC[C@]4(C)[C@H]3C[C@H](O)[C@]12C)C(=O)O', 'Aβ1-40 (Homo sapiens, UniProt P05067)', -33);
